- Measured on: hPD1 (soluble, ELISA of Example 20) (human, UniProt Q15116 25-167, limits assumed)
- Sequence (Q15116 25-167 limits assumed): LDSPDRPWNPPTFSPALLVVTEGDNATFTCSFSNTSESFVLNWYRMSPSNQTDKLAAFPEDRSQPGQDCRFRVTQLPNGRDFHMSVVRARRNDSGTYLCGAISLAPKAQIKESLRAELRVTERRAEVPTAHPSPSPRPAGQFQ
- Protocol: blocking ELISA, hPD1 to hPDL1
What pIC50 was measured for each of the following?
// returns pIC50 (minus log10 of molar concentration), number only

Lookup: For m2C1 (antibody, V domains shown, R3A9 derivative; also called m3CM (apparent misprint)) VH: QVQLVQSGAEVKKPGASVKVSCKASGHTFTSYYIHWVRQAPGQGLEWMGIINPSGGSTSYAQKFQGRVTMTRDTSTSTVYMELSSLRSEDTAVYYCARDRAYGGAGDYWGQGTLVTVSS VL: DIQMTQSPSSLSASVGDRVTITCRASRSISSWLAWYQQKPGKAPKLLIYAASSLQSGVPSRFSGSGSGTDFTLTISSLQPEDFATYYCQQSYSIPATFGQGTKVEIK , what is its reported pIC50?
Found: 8.24

Lookup: Which pIC50 reading was recorded for the binder m3A7 (antibody, V domains shown, R3A9 derivative; also called 7115C) VH: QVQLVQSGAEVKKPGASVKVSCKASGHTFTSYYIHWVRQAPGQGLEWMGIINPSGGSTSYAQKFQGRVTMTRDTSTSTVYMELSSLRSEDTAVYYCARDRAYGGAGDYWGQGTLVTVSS VL: DIQMTQSPSSLSASVGDRVTITCRASRSISNWLAWYQQKPGKAPKLLIYAASSLQSGVPSRFSGSGSGTDFTLTISSLQPEDFATYYCQQSYSAPVTFGQGTKVEIK ?
Found: 7.42

Lookup: May I ask what pIC50 has been recorded for 38B2 (antibody, V domains shown, 24H9 derivative, IgG; also called 780_54; hPD1 Ab (38B2)) VH: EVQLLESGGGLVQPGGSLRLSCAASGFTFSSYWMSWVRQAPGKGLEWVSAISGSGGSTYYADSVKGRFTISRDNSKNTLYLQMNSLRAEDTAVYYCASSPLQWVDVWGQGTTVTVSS VL: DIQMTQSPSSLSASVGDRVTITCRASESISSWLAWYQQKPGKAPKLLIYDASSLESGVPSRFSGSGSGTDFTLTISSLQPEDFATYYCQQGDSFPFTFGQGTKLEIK ?
Found: 8.37

Lookup: Give its pIC50 value. Item: m4D1 (antibody, V domains shown, R3A9 derivative) VH: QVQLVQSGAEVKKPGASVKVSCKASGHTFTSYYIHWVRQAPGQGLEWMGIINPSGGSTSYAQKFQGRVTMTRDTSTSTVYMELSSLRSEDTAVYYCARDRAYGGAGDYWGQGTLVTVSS VL: DIQMTQSPSSLSASVGDRVTITCRASQSISAWLAWYQQKPGKAPKLLIYKASSLESGVPSRFSGSGSGTDFTLTISSLQPEDFATYYCQQSYSPPATFGGGTKVEIK
Found: 8.22

Lookup: Reported pIC50 for m2A1 (antibody, V domains shown, R3A9 derivative; also called m2AM (apparent misprint)) VH: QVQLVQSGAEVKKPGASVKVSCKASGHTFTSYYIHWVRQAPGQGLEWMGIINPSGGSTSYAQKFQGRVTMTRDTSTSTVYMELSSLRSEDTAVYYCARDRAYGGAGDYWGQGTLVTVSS VL: DIQMTQSPSSLSASVGDRVTITCRASRGISSWLAWYQQKPGKAPKLLIYAASSLQSGVPSRFSGSGSGTDFTLTISSLQPEDFATYYCQQSYSPPWTFGQGTKVEIK : what is it?
Found: 8.22
